The following compounds are listed with their measured IC50 values.
Molecular target: purified STEP46 enzyme (Homo sapiens)
Sequence (P54829 197-565 limits assumed): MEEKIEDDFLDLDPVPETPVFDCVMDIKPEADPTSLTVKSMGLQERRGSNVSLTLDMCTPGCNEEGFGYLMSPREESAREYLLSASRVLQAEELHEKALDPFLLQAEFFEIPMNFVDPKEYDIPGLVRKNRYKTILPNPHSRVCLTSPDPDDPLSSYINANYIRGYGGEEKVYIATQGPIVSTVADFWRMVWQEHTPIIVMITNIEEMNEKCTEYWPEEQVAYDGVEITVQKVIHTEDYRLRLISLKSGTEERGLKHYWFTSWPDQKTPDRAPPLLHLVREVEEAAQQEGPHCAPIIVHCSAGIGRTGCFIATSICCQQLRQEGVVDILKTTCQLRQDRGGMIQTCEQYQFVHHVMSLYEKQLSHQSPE

As a guide, the following entries are already answered.
record_smiles=CNc1nc(-c2ccnnc2)nc2ccc(-c3cccc(F)c3)cc12 result="> 10 µM"
record_smiles=CNc1nc(-c2cccnc2)nc2c(F)c(-c3ccc4c(cnn4C)c3)ccc12 result="< 1 µM"
record_smiles=COc1ccc(-c2ccc3nc(-c4cccnc4)nc(NCc4ccccn4)c3c2)cc1 result="1 to 10 µM"
record_smiles=Fc1cccc(-c2ccc3nc(-c4cccnc4)nc(NCc4ccccn4)c3c2)c1 result="> 10 µM"

We next turn to a different compound, shown below.
Reported IC50, compound CNc1nc(-c2cccnc2)nc2c(F)c(-c3ccccc3F)ccc12 : ____ 1 to 10 µM

---

The following molecules are listed with their measured pIC50 values.
target: purified STEP46 enzyme (Homo sapiens, UniProt P54829)
pIC50: −log10 of the molar value. Where a name gives a salt, the structure may show the parent alone.

As a guide, the following entries are already answered.
molecule=CNc1nc(-c2cccnc2)nc2cc(-c3cccc(F)c3C)ccc12 result="5.00 to 6.00"
molecule=CNc1nc(-c2cncc(C)c2)nc2cc(-c3cc(F)ccc3F)ccc12 result="5.00 to 6.00"
molecule=CNc1nc(-c2cccnc2)nc2ccc(-c3ccc4sc(C)nc4c3)cc12 result="> 6.00"

Reported pIC50, molecule CNc1nc(-c2cccnc2)nc2ccc(-c3ccc(F)c4ccoc34)cc12 : ____ > 6.00

Reported pIC50, molecule CNc1nc(-c2cccnc2)nc2c(-c3cc(F)cc(OC)c3)ccc(OC)c12 : ____ 5.00 to 6.00

Reported pIC50, molecule CNc1nc(-c2cccnc2)nc2cc(F)c(-c3ccccc3OC)cc12 : ____ < 5.00

Reported pIC50, molecule CNc1nc(-c2cccnc2)nc2ccc(-c3ccc(F)cc3F)c(F)c12 : ____ 5.00 to 6.00

Reported pIC50, molecule CNc1nc(-c2cccnc2)nc2c(-c3cccc(C#N)c3)ccc(OC)c12 [Compound 489, dihydrochloride] : ____ 5.00 to 6.00

Reported pIC50, molecule Fc1ccc(-c2ccc3nc(-c4cccnc4)nc(Nc4cc(F)ccn4)c3c2)cc1 : ____ 5.00 to 6.00

Reported pIC50, molecule Fc1ccc(-c2ccc3nc(-c4cccnc4)nc(N4CCc5cc(Cl)ccc54)c3c2)c(F)c1 : ____ 5.00 to 6.00

Reported pIC50, molecule CNc1nc(-c2cccnc2)nc2c(OC)cc(-c3ccc(OC)cc3)cc12 : ____ 5.00 to 6.00

Reported pIC50, molecule CNc1nc(-c2cccnc2)nc2ccc(OCCCN3CCN(C)CC3)cc12 : ____ 5.00 to 6.00

Reported pIC50, molecule CNc1nc(-c2cccnc2)nc2ccc(-c3cccc4[nH]c(=O)oc34)cc12 : ____ > 6.00

Reported pIC50, molecule CNc1nc(-c2cccnc2)nc2cc(-c3cc(F)cc(OCC(=O)N(C)C)c3)ccc12 : ____ 5.00 to 6.00

Reported pIC50, molecule Fc1ccc(-c2ccc3nc(-c4cccnc4)nc(Nc4cccc(F)n4)c3c2)cc1 : ____ 5.00 to 6.00

Reported pIC50, molecule CNc1nc(-c2cccnc2)nc2cc(-c3ccccc3F)c(F)cc12 : ____ 5.00 to 6.00

Reported pIC50, molecule CNc1nc(-c2cccnc2)nc2ccc(-c3cnc(-c4ccccc4)s3)cc12 : ____ < 5.00

Source of measurements: patent US20140315886A1
